EC50: recorded values
System: human melanoma IGR39 cell line
Test: MTT cell viability assay, melanoma IGR39
Type: cell-based
Conditions: Homo sapiens, IGR-39; MTT, 72 h, IGR39

O=C(NN=Cc1ccc([N+](=O)[O-])s1)C1CC(=O)N(c2ccc(Nc3ccccc3)cc2)C1 (centres unmarked): 2.5 µM

We next turn to a different molecule, shown below.
Problem: // lookup EC50 for O=C(NN=Cc1c[nH]c2ccccc12)C1CC(=O)N(c2ccc(Nc3ccccc3)cc2)C1 (centres unmarked)
Result: 10.4 µM

---

Test system: prostate carcinoma PPC-1 cell line
Assay: MTT cell viability assay, prostate carcinoma PPC-1
Assay type: cell-based, human
Settings: Homo sapiens; MTT, 72 h, PPC-1
PROPERTY_NAME: pEC50
By convention, pEC50 is the negative base-10 log of a molar concentration.

Problem: Under prostate carcinoma PPC-1 cell line: pEC50 value of O=C(NN=Cc1ccc([N+](=O)[O-])s1)C1CC(=O)N(c2ccc(Nc3ccccc3)cc2)C1 (stereo not shown) ?
Result: 5.44
